These entries and their values trace back to patent US11566007B2.

target: K-Ras G12C (Homo sapiens (Human), UniProt P01116+P62937, G12C); assay: Ras-Raf (BRAF RBD) disruption / FRET / MOA assay, KRAS G12C; assay type: biochemical; conditions: KRAS G12C; Ras-Raf disruption/FRET/MOA assay; read-out: IC50* KRAS G12C FRET data
Sequence (P01116-2 other isoform, or with tags, fused parts or gaps G12C): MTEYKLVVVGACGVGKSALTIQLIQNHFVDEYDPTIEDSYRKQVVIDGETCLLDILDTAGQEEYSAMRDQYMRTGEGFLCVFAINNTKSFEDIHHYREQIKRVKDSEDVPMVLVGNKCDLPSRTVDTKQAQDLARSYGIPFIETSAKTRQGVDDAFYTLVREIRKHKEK
Sequence (P62937 whole entry): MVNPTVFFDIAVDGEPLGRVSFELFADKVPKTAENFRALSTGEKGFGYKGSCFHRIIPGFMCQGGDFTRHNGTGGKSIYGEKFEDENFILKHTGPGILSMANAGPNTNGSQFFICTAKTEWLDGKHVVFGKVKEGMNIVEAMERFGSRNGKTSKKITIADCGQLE
pIC50: −log10 of the molar value.
observedProperty: pIC50

C=CC(=O)N(C)CC(=O)N(C)[C@H](C(=O)N[C@H]1Cc2cc(O)cc(c2)-c2ccc3c(c2)c(c(-c2cccnc2COC)n3CC)CC(C)(C)COC(=O)[C@@H]2CCCN(N2)C1=O)C(C)C [Example A147]; 6.00 to 7.00
C=CC(=O)N1CCO[C@@H]2CCN(C(=O)N(C)[C@H](C(=O)N[C@H]3Cc4nc(cs4)-c4ccc5c(c4)c(c(-c4cccnc4[C@H](C)OC)n5CC)CC(C)(C)COC(=O)[C@@H]4CCCN(N4)C3=O)C(C)C)C[C@@H]21 (atropisomer, axis not shown) [Example A581]; 7.00 to 8.00
C=CC(=O)N1CC[C@H](C(=O)N(C)[C@H](C(=O)N[C@H]2Cc3cccc(c3)-c3ccc4c(c3)c(c(-c3cccnc3[C@H](C)OC)n4CC)CC(C)(C)COC(=O)[C@@H]3CCCN(N3)C2=O)C(C)C)[C@H]1C (atropisomer, axis not shown) [Example A373]; 6.00 to 7.00
C=CC(=O)N(C)C(=O)N(C)[C@H](C(=O)N[C@H]1Cc2nc(cs2)-c2ccc3c(c2)c(c(-c2cccnc2[C@H](C)OC)n3CC)CC(C)(C)COC(=O)[C@@H]2CCCN(N2)C1=O)C(C)C (atropisomer, axis not shown) [Example A355]; < 5.00
CO[C@@H](C)c1ncccc1-c1c2c3cc(ccc3n1CC(F)(F)F)-c1csc(n1)C[C@H](NC(=O)[C@H](C(C)C)N(C)C(=O)N1C[C@@H]3OCCN(C(=O)/C=C/CN(C)C)[C@@H]3C1)C(=O)N1CCC[C@H](N1)C(=O)OCC(C)(C)C2 (atropisomer, axis not shown) [Example A573]; 7.00 to 8.00
C=CC(=O)N1C[C@H](C(=O)N(C)[C@H](C(=O)N[C@H]2Cc3cccc(c3)-c3ccc4c(c3)c(c(-c3cccnc3[C@H](C)OC)n4CC)CC(C)(C)COC(=O)[C@@H]3CCCN(N3)C2=O)C(C)C)[C@H](C(F)(F)F)C1 (atropisomer, axis not shown) [Example A400]; 7.00 to 8.00
C=CC(=O)N1CC[C@H](C(=O)N(C)[C@H](C(=O)N[C@@H]2C(=O)N3CCC[C@H](N3)C(=O)OCC(C)(C)Cc3c(-c4cncnc4)n(CC)c4ccc(cc34)-c3cccc(c3)[C@@H]2OC)C(C)C)C1 [Example A271]; < 5.00
CCn1c(-c2cnccc2COC)c2c3cc(ccc31)-c1cc(O)cc(c1)C[C@H](NC(=O)[C@H](C(C)C)N(C)C(=O)[C@H]1CCN(C(=O)C(C)(C)N(C)C)C1)C(=O)N1CCC[C@H](N1)C(=O)OCC(C)(C)C2 [Example A153]; 7.00 to 8.00
C=CC(=O)N1CCN(C(=O)N(C)[C@H](C(=O)N[C@H]2Cc3nc(cs3)-c3ccc4c(c3)c(c(-c3cccnc3[C@H](C)OC)n4CC)CC(C)(C)COC(=O)[C@@H]3CCCN(N3)C2=O)C(C)C)[C@@H](C)C1 (atropisomer, axis not shown) [Example A421]; 7.00 to 8.00
C=CC(=O)N1CC[C@H](C(=O)N(C)[C@H](C(=O)N[C@H]2Cc3cc(cc(C(F)F)c3)-c3ccc4c(c3)c(c(-c3cc(N5CCN(C)CC5)cnc3[C@H](C)OC)n4CC(F)(F)F)CC(C)(C)COC(=O)[C@@H]3CCCN(N3)C2=O)C(C)C)C1 (atropisomer, axis not shown) [Example A357]; 6.00 to 7.00
CCn1c(-c2cccnc2[C@H](C)OC)c2c3cc(ccc31)-c1cccc(c1)C[C@H](NC(=O)[C@H](C(C)C)N(C)C(=O)[C@H]1CCN(C(=O)C#CC(C)(C)N(C)C)C1)C(=O)N1CCC[C@H](N1)C(=O)OCC(C)(C)C2 (atropisomer, axis not shown) [Example A290]; > 8.00
CCn1c(-c2cccnc2[C@H](C)OC)c2c3cc(ccc31)-c1cccc(c1)C[C@H](NC(=O)C(COC1CN(C(=O)C#CC(C)(C)N(C)C)C1)C(C)C)C(=O)N1CCC[C@H](N1)C(=O)OCC(C)(C)C2 (stereo partly drawn) [Example A316]; > 8.00
CO[C@@H](C)c1ncccc1-c1nc2ccc3cn2c1CC(C)(C)COC(=O)[C@@H]1CCCN(N1)C(=O)[C@@H](NC(=O)[C@H](C(C)C)N(C)C(=O)[C@H]1CCN(C(=O)C#CC(C)(C)N(C)C)C1)Cc1cccc-3c1 [Example A311]; < 5.00
C/C=C(\C)S(=O)(=O)N1CC[C@H](C(=O)N(C)[C@H](C(=O)N[C@H]2Cc3cc(O)cc(c3)-c3ccc4c(c3)c(c(-c3cccnc3[C@H](C)OC)n4CC)CC(C)(C)COC(=O)[C@@H]3CCCN(N3)C2=O)C(C)C)C1 (atropisomer, axis not shown) [Example A306]; 6.00 to 7.00
C=CS(=O)(=O)N1CCC(C(=O)N(C)[C@H](C(=O)N[C@H]2Cc3nc(cs3)-c3ccc4c(c3)c(c(-c3cncnc3)n4CC)CC(C)(C)COC(=O)[C@@H]3CCCN(N3)C2=O)C(C)C)C1 (single isomer, unassigned) [Example A170]; 5.00 to 6.00
